Below: a set of entries, each annotated with reported inhibition.
# assay_system: Calcium/calmodulin-dependent protein kinase type 1D (Homo sapiens) (UniProt Q8IU85);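 also: reported figure is the mean percent inhibition of CAMK1D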
# Sequence (Q8IU85 whole entry, looked up): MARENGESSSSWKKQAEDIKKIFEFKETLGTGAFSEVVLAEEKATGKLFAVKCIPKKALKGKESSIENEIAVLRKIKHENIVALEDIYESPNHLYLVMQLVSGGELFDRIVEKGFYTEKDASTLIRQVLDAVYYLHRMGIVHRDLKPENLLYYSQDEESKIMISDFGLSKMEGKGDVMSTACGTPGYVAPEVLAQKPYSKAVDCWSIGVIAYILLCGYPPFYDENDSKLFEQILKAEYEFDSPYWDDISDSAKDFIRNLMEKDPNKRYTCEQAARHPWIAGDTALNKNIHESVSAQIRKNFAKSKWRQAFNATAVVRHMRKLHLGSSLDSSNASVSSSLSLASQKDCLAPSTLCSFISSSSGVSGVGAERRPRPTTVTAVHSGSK
# assay_conditions: at 1 µM
A number alone suffices; assume %.

molecule | assay_system | units_text | quantitative_readout
CC1=C(C(=O)Nc2ccc3[nH]nc(C)c3c2)C(c2ccc(C(F)(F)F)cc2)CC(=O)N1 (stereo not given) | Calcium/calmodulin-dependent protein kinase type 1D (Homo sapiens) (UniProt Q8IU85) | % | 2.58
N#Cc1ccc2c(-c3ccnc(NC4CC4)n3)c(-c3ccc(F)cc3)nn2c1 | Calcium/calmodulin-dependent protein kinase type 1D (Homo sapiens) (UniProt Q8IU85) | % | 0.14
O=C(O[C@H]1CN[C@H](C#Cc2cc3ncnc(Nc4ccc(OCc5cccc(F)c5)c(Cl)c4)c3s2)C1)N1CCOCC1 | Calcium/calmodulin-dependent protein kinase type 1D (Homo sapiens) (UniProt Q8IU85) | % | -0.12
CN(c1ccc(NC(=O)NCCN2CCOCC2)cc1)c1ccnc(Nc2ccc(CS(C)(=O)=O)cc2)n1 | Calcium/calmodulin-dependent protein kinase type 1D (Homo sapiens) (UniProt Q8IU85) | % | 0.15
COc1cc(Nc2ncc(-c3ccccc3)o2)cc(OC)c1 | Calcium/calmodulin-dependent protein kinase type 1D (Homo sapiens) (UniProt Q8IU85) | % | -0.66

API: value(readout=inhibition, system=Calcium/calmodulin-dependent protein kinase type 1D (Homo sapiens) (UniProt Q8IU85)) for record "Cc1nnc(-c2cccc(-c3ccc(C(=O)NCC4CC4)cc3)c2)o1"
0.22

API: value(readout=inhibition, system=Calcium/calmodulin-dependent protein kinase type 1D (Homo sapiens) (UniProt Q8IU85)) for record "COc1c(C(N)=O)cc(-c2ccc(Cl)cc2)cc1-c1ccc(S(N)(=O)=O)cc1"
3.09

API: value(readout=inhibition, system=Calcium/calmodulin-dependent protein kinase type 1D (Homo sapiens) (UniProt Q8IU85)) for record "c1cnn2ncc(-c3ccnc(NCCCN4CCOCC4)n3)c2c1"
-0.17

API: value(readout=inhibition, system=Calcium/calmodulin-dependent protein kinase type 1D (Homo sapiens) (UniProt Q8IU85)) for record "O=C(Nc1n[nH]c2nnc(-c3cccnc3)cc12)C1CC1"
0.89

API: value(readout=inhibition, system=Calcium/calmodulin-dependent protein kinase type 1D (Homo sapiens) (UniProt Q8IU85)) for record "COc1cccc(-n2ncc3c(N/N=C/c4ccc(C(=O)NCCN(C)C)cc4)ncnc32)c1"
5.99

====

# assay_system: Phosphorylase b kinase gamma catalytic chain, skeletal muscle/heart isoform (Homo sapiens);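 also: each value is a mean percent inhibition of PHKG1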
# assay_conditions: at 1 µM
Label fulfilled when inhibition >= 4%; otherwise not fulfilled.

Solved cases (4 shown):
chem_smiles | group_label
CCOc1ccc2c(-c3ccnc(Nc4cc(OC)cc(C(F)(F)F)c4)n3)cnn2n1 | not fulfilled
COc1cccc(Nc2nccc(-c3cnn4ncccc34)n2)c1 | fulfilled
Fc1ccc(Nc2nccc(-c3c(-c4ccc(C(F)(F)F)cc4)nn4ncccc34)n2)cc1F | not fulfilled
CNC(=O)c1sc(-n2cnc3cc(OC)c(OC)cc32)cc1OCc1ccccc1C(F)(F)F | not fulfilled

Assess whether reported inhibition for "N#Cc1ccc2c(-c3ccnc(NC4CC4)n3)c(-c3ccc(F)cc3)nn2c1" sits at 4% or higher.
not fulfilled

====

Below: a set of entries, each annotated with reported inhibition.
# assay_system: BDNF/NT-3 growth factors receptor (Homo sapiens) (UniProt Q16620);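 also: values are the mean percent inhibition of TRKB kinase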
# Sequence (Q16620 32-822 limits assumed): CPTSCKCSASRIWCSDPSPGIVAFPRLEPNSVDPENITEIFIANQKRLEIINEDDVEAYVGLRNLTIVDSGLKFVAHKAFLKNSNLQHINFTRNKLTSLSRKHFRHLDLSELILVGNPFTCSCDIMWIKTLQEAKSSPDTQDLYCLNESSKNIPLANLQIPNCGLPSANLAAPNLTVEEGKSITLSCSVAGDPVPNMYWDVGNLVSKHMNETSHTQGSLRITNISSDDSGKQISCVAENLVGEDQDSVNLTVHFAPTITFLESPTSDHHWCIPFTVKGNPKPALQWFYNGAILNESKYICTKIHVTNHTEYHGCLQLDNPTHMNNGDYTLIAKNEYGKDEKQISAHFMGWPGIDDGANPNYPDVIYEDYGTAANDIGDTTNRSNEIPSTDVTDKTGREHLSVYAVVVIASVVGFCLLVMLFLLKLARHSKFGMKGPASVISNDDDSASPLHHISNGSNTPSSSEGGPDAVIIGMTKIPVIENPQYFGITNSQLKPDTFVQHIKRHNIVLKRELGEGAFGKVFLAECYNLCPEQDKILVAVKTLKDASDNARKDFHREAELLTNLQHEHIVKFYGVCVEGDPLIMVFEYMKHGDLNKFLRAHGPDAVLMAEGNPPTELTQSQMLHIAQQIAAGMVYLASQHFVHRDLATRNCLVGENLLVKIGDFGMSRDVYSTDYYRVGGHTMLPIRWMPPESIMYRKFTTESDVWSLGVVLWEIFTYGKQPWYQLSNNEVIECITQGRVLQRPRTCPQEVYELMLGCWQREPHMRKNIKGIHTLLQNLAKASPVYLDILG
# assay_conditions: at 1 µM
A number alone suffices; assume %.

Sample records with inhibition:
compound | units_text | quantitative_readout
CNC(=O)c1sc(-n2cnc3cc(OC)c(OC)cc32)cc1OCc1ccccc1C(F)(F)F | % | 4.02
O=C(O[C@H]1CN[C@H](C#Cc2cc3ncnc(Nc4ccc5c(ccn5Cc5cc(F)ccc5F)c4)c3s2)C1)N1CCOCC1 | % | 3.22
CS(=O)(=O)Nc1ccc(-c2cc(-c3ccccc3)cc(C(N)=O)c2N)cc1 | % | 2.61
CC1(C)CC(n2cnc(-c3ccc(F)cc3)c2-c2ccnc(N)n2)CC(C)(C)N1 | % | 2.03
O=C(Nc1n[nH]c2nnc(-c3cccnc3)cc12)C1CC1 | % | 0.57

What does the data say about its inhibition? Entry: CC1=C(C(=O)Nc2ccc3[nH]nc(C)c3c2)C(c2ccc(C(F)(F)F)cc2)CC(=O)N1 (centres undefined)
3.58

What does the data say about its inhibition? Entry: "CCS(=O)(=O)c1ccc(OC)c(Nc2ncc(-c3cccc(F)c3)o2)c1"
47.2

What does the data say about its inhibition? Entry: "COc1ccc(-c2nn3ncccc3c2-c2ccnc(Nc3ccc(F)c(F)c3)n2)cc1"
8.32

====

# assay_system: Serine/threonine-protein kinase Chk2 (Homo sapiens) (UniProt O96017)
# Sequence (O96017 whole entry): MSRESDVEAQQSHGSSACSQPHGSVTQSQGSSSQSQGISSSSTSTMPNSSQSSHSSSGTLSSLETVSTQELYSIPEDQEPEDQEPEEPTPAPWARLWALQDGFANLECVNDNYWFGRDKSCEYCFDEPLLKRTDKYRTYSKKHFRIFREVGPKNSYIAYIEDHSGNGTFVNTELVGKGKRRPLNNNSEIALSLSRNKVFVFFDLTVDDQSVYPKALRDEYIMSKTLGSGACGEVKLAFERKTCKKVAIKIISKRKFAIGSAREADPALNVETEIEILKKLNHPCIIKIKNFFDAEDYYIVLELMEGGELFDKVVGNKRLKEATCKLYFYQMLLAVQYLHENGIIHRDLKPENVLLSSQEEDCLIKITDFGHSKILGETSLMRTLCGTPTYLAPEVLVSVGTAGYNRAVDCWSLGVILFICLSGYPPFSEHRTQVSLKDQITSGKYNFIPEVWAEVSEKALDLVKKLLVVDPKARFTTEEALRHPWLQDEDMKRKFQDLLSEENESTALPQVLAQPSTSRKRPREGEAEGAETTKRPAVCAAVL
# assay_conditions: at 0.1 µM
# Description: GSK_PKIS: CHEK2 mean inhibition at 0.1 uM [Nanosyn]
quantity_measured: inhibition (%)
A number alone suffices; assume %.

Sample records with inhibition:
chem_smiles | assay_system | units_text | quantitative_readout
O=C(O[C@H]1CN[C@H](C#Cc2cc3ncnc(Nc4ccc5c(ccn5Cc5cc(F)ccc5F)c4)c3s2)C1)N1CCOCC1 | Serine/threonine-protein kinase Chk2 (Homo sapiens) (UniProt O96017) | % | -0.02
COC(=O)Nc1nc2cc(Oc3ccc(NC(=O)Nc4ccccc4)cc3)ccc2[nH]1 | Serine/threonine-protein kinase Chk2 (Homo sapiens) (UniProt O96017) | % | 1.94
CS(=O)(=O)Nc1ccc(-c2cc(-c3ccccc3)cc(C(N)=O)c2N)cc1 | Serine/threonine-protein kinase Chk2 (Homo sapiens) (UniProt O96017) | % | 1.07
NS(=O)(=O)c1ccc(N/N=C2\C(=O)Nc3cccc(CCc4ccncc4)c32)cc1 | Serine/threonine-protein kinase Chk2 (Homo sapiens) (UniProt O96017) | % | -0.6

Then this compound:
What does the data say about its inhibition? Entry: "O=C(Nc1n[nH]c2nnc(-c3cccnc3)cc12)C1CC1"
-1.27

====

# assay_system: Tyrosine-protein kinase Mer (Homo sapiens);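 also: values are mean inhibition of human MER kinase, from the GSK PKIS profiling panel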
# assay_conditions: at 1 µM
Label yes (1) when inhibition >= 5%; otherwise no (0).

chem_smiles | assay_system | group_label
COc1ccc(Nc2ncc(-c3ccccc3)o2)cc1OC | Tyrosine-protein kinase Mer (Homo sapiens) | yes (1)
OCCCNc1nccc(-c2c(-c3ccc(F)cc3)nn3cc(C(F)(F)F)ccc23)n1 | Tyrosine-protein kinase Mer (Homo sapiens) | yes (1)
CC1(C)CC(n2cnc(-c3ccc(F)cc3)c2-c2ccnc(N)n2)CC(C)(C)N1 | Tyrosine-protein kinase Mer (Homo sapiens) | no (0)
CN1CCC(n2cnc(-c3ccc(F)cc3)c2-c2ccnc(NCCO)n2)CC1 | Tyrosine-protein kinase Mer (Homo sapiens) | yes (1)
Cc1ccc(-c2cc3c(NC(=O)C4CC4)ncnc3o2)cc1 | Tyrosine-protein kinase Mer (Homo sapiens) | yes (1)

Assess whether reported inhibition for "O=C(O[C@H]1CN[C@H](C#Cc2cc3ncnc(Nc4ccc5c(cnn5Cc5ccccc5)c4)c3s2)C1)N1CCOCC1" sits at 5% or higher.
yes (1)

Assess whether reported inhibition for "NS(=O)(=O)c1cccc(N/C=C2\C(=O)Nc3ccccc32)c1" sits at 5% or higher.
yes (1)

Assess whether reported inhibition for "CN(C)CCNC(=O)Nc1ccc(N(C)c2ccnc(Nc3ccc(CS(C)(=O)=O)cc3)n2)cc1" sits at 5% or higher.
no (0)

Assess whether reported inhibition for "c1ccc(-c2n[nH]cc2-c2ccnc(-c3ccc(OCCn4ccnc4)cc3)c2)nc1" sits at 5% or higher.
no (0)

Assess whether reported inhibition for "CC(C)c1ccc(-c2cc(-c3c[nH]nc3-c3ccccn3)ccn2)cc1" sits at 5% or higher.
no (0)

====

Below: a set of entries, each annotated with reported inhibition.
# assay_system: Mitogen-activated protein kinase 1 (Homo sapiens) (UniProt P28482);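 also: reported figure is an averaged percent inhibition of the kinase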
# Sequence (P28482 whole entry): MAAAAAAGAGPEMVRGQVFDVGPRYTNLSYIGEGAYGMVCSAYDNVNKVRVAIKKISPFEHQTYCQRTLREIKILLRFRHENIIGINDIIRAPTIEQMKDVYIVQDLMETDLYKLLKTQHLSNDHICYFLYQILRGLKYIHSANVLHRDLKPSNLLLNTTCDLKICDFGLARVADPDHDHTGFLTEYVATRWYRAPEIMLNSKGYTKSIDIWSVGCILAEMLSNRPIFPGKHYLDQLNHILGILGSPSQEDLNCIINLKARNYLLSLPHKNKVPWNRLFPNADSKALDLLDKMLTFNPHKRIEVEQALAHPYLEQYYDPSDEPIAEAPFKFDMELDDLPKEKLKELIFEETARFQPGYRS
# assay_conditions: at 0.1 µM
A number alone suffices; assume %.

chem_smiles | units_text | quantitative_readout
O=C(O[C@H]1CN[C@H](C#Cc2cc3ncnc(Nc4ccc5c(cnn5Cc5ccccc5)c4)c3s2)C1)N1CCOCC1 | % | 0.84
Cc1nnc(-c2cccc(-c3ccc(C(=O)NCC4CC4)cc3)c2)o1 | % | 2.73
COc1ccccc1-c1cc(/C=C2\C(=O)Nc3ncc(Br)cc32)cc(Br)c1O | % | 3.26
CN1CCC(n2cnc(-c3ccc(F)cc3)c2-c2ccnc(NCCO)n2)CC1 | % | 2.94
CCS(=O)(=O)c1ccc(OC)c(Nc2ncc(-c3cccc(F)c3)o2)c1 | % | 6.33
Fc1cccc(COc2ccc(Nc3ncncc3C#Cc3ccccc3)cc2Cl)c1 | % | 5.17
O=C(O[C@H]1CN[C@H](C#Cc2cc3ncnc(Nc4ccc(OCc5cccc(F)c5)c(Cl)c4)c3s2)C1)N1CCOCC1 | % | 7.72
COC(=O)Nc1nc2ccc(Oc3ccc(NC(=O)Nc4cc(C(F)(F)F)ccc4F)cc3)cc2s1 | % | -1.09
COc1ccc(Nc2ncc(-c3ccccc3)o2)cc1OC | % | -0.07
Cc1c2ccc(N(C)c3ccnc(Nc4cccc(S(N)(=O)=O)c4)n3)cc2nn1C | % | 4.96

What does the data say about its inhibition? Entry: "COc1cc(N2CCN(C(C)C)CC2)ccc1Nc1nc(Nc2cccc3ncccc23)c2cc[nH]c2n1"
-2.97

What does the data say about its inhibition? Entry: "CC(C)c1ccc(-c2cc(-c3c[nH]nc3-c3ccccn3)ccn2)cc1"
-0.73

What does the data say about its inhibition? Entry: "CS(=O)(=O)CCNCc1ccoc1-c1ccc2ncnc(Nc3ccc(OCc4ccccc4)cc3)c2c1"
0.72

What does the data say about its inhibition? Entry: "NS(=O)(=O)c1ccc(N/N=C2\C(=O)Nc3cccc(CCc4ccncc4)c32)cc1"
0.92

What does the data say about its inhibition? Entry: "CCn1c(-c2nonc2N)nc2cncc(C(=O)NCCNC)c21"
6.91

What does the data say about its inhibition? Entry: "NC(=O)c1ccc2c(-c3ccnc(NCCCO)n3)c(-c3ccc(F)cc3)nn2c1"
1.98

What does the data say about its inhibition? Entry: "COc1ccc2ncn(-c3cc(O[C@H](C)c4ccccc4C(F)(F)F)c(C(N)=O)s3)c2c1"
-1.88

What does the data say about its inhibition? Entry: "COc1ccc(-c2nn3ncccc3c2-c2ccnc(Nc3ccc(F)c(F)c3)n2)cc1"
4.91

What does the data say about its inhibition? Entry: "Nc1nccc(-c2c(-c3ccc(F)cc3)ncn2C2CCNCC2)n1"
-4.78

What does the data say about its inhibition? Entry: "c1cnn2ncc(-c3ccnc(NCCCN4CCOCC4)n3)c2c1"
2.95
